biological target: His6-TEV-PDGFRβ (557-1016) (Homo sapiens (Human), UniProt P09619); assay: PDGFRβ HTRF Assay; type: biochemical; settings: 800 μM ATP, 0.5 μM TK-substrate biotin peptide, 30 min pre-incubation, 3 hours reaction; read-out: PDGFR HTRF IC50
Sequence (P09619 whole entry, looked up): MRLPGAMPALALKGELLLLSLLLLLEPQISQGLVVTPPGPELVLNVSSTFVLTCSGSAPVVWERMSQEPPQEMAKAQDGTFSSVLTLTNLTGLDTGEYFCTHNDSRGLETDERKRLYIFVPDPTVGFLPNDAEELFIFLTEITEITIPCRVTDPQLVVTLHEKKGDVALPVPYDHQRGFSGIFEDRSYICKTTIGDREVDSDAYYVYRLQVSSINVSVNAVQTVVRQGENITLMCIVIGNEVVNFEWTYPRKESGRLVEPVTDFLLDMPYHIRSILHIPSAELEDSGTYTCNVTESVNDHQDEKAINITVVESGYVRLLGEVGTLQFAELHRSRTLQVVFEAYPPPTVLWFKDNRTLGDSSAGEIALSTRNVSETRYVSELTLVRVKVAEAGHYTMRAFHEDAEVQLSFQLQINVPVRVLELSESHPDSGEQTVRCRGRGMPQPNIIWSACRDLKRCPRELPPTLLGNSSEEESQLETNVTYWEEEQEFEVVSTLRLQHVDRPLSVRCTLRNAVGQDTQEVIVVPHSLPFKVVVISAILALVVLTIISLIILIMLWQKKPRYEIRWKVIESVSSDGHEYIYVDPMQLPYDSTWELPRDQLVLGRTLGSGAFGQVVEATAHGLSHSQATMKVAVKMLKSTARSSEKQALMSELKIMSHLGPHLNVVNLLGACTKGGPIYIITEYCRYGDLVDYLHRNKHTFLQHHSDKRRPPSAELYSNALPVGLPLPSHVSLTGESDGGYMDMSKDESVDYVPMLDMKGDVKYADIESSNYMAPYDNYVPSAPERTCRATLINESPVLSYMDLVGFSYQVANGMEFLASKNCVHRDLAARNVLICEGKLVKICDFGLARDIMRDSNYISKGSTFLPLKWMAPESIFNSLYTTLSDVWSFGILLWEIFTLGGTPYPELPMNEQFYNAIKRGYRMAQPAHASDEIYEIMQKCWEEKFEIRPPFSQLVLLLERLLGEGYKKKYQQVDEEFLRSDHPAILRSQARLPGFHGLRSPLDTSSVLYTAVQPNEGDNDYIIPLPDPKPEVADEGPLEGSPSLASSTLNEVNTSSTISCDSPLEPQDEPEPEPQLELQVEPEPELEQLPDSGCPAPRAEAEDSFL
testReadout: pIC50
Please keep in mind that pIC50 is minus log10 of the molar concentration; only the number is needed.

Param item: "Cc1ncc(C(=O)NCCN2CCCC2(C)C)cc1Nc1nn(C)c2nc(Nc3cncnc3)ncc12" ; param system: His6-TEV-PDGFRβ (557-1016) (Homo sapiens (Human), UniProt P09619); output pIC50: 9.15

Hey, His6-TEV-PDGFRβ (557-1016) (Homo sapiens (Human), UniProt P09619) data for "CC(=O)Nc1cc(Nc2ncc3c(Nc4cc(C(=O)NCCN5CCCC5(C)C)cnc4C)nn(C)c3n2)ccn1" : pIC50 came out at 9.41

Entry Cc1cc(C(=O)NCCN2CC3COCC3C2)sc1Nc1nn(C)c2nc(Nc3cnn(C)c3)ncc12 (stereo not shown) , His6-TEV-PDGFRβ (557-1016) (Homo sapiens (Human), UniProt P09619) data, pIC50 value: 9.21

The reported pIC50 value, His6-TEV-PDGFRβ (557-1016) (Homo sapiens (Human), UniProt P09619), for "Cc1ncc(C(=O)NCCN2C3CCC2CC3)cc1Nc1nn(C)c2nc(Nc3cnn(C)c3)ncc12" reads 9.59

Bench note, His6-TEV-PDGFRβ (557-1016) (Homo sapiens (Human), UniProt P09619): entry "Cc1ncc(C(=O)NCCN(C)C2CCCC2)cc1Nc1nn(C)c2nc(Nc3cncnc3)ncc12" , its pIC50 = 9.23

# pIC50 measured on His6-TEV-PDGFRβ (557-1016) (Homo sapiens (Human), UniProt P09619) for item "COCCn1cc(Nc2ncc3c(Nc4cc(NC(=O)CN5CCC[C@@H]5C)cnc4C)nn(C)c3n2)cn1" = 9.33

# value of pIC50, His6-TEV-PDGFRβ (557-1016) (Homo sapiens (Human), UniProt P09619), item "Cc1ncc(C(=O)NCCN2CCCC2(C)C)cc1Nc1nn(C)c2nc(Nc3cccc(C4(C(=O)O)CC4)c3)ncc12" = 8.80

---

target: Tb-labeled inactive PDGFRβ (Homo sapiens (Human), UniProt P09619); test: biochemical; type: binding; settings: read-out: PDGFR Lantha IC50
Sequence (P09619 whole entry, looked up): as above
testReadout: IC50 (nM)
API: value field is a number in nM; no unit string.

Kindly note the recorded IC50 for "COCCn1cc(Nc2ncc3c(Nc4cc(NC(=O)CN5CC6CCC5CC6)cnc4C)nn(C)c3n2)cn1" , which is 1.4

Reported IC50 for "Cc1ccc(C(=O)NCCN2CCCC2(C)C)cc1Nc1nn(C)c2nc(Nc3cnn(C)c3)ncc12" was 2.3

The recorded IC50 for "Cc1ncc(C(=O)NCCN(C(C)C)C(C)C)cc1Nc1nn(C)c2nc(Nc3cncnc3)ncc12" is 9.9

The measured IC50 associated with "Cc1ncc(C(=O)NCCN2CCCC2(C)C)cc1Nc1nn(C)c2nc(Nc3cnn4c3OCCC4)ncc12" reads 805

Looking up "Cc1ncc(C(=O)NCCN2CCCC2(C)C)cc1Nc1nn(C)c2nc(Nc3ccc(=O)[nH]c3)ncc12" , I see its IC50 listed as 4.7

Entry "Cn1cc(Nc2ncc3c(Nc4cc(C(=O)NCCN5CCC(F)(F)CC5)ccc4F)nn(C)c3n2)cn1" , IC50 reported as 0.89

// IC50 lookup, compound = "Cc1ncc(C(=O)NCCN2CCCC(F)(F)C2)cc1Nc1nn(C)c2nc(Nc3cncnc3)ncc12" , result: 3.7
